target: Laminin 421/521; test: phage display, NGS count
Recorded measurements of Count, one per entry
assay.metric: Count

[[record]]
binder = "CHQRQQTYC"
assay_metric = "Count"
assay_result = 55

[[record]]
binder = "QTFGYSMFNVRT"
assay_metric = "Count"
assay_result = 30

[[record]]
binder = "ETYKVTRVISPW"
assay_metric = "Count"
assay_result = 50

[[record]]
binder = "CLKDTHLNC"
assay_metric = "Count"
assay_result = 40


// data source = patent US20240207421A1
